molecular target: Japanese encephalitis virus (JEV)-NS2B-NS3 protease (Japanese encephalitis virus, UniProt P32886, DEL1469-1493); assay: JEV protease inhibition assay; format: biochemical
pIC50: −log10 of the molar value.
Hi there, I'd appreciate the recorded pIC50 for every entry that follows.

pIC50 for O=C([N-]c1c[n+](C[C@H]2CC[C@H](NCC(F)(F)F)CC2)no1)Nc1cc(N2CC[C@H](c3ccccc3)C2=O)cc(C(F)(F)F)c1 ? 4.70 to 6.00

pIC50 for CN(C)[C@H]1CC[C@H]([n+]2cc([N-]C(=O)Nc3cc(NC(=O)Cc4ccccc4)cc(C(F)(F)F)c3)on2)CC1 ? 4.70 to 6.00

pIC50 for N[C@H]1C[C@H]([n+]2cc([N-]C(=O)Nc3cc(NC(=O)Cc4ccccc4)cc(C(F)(F)F)c3)on2)C1 ? 4.70 to 6.00
